molecular target: CFTR-mediated chloride transport in human intestinal epithelial enteroid cells (Homo sapiens); experiment: Membrane potential dye, Enteroid Assay A; assay type: cell-based; conditions: Enteroid Assay A; read-out: Ent. A EC50
pEC50: −log10 of the molar value.
Here, each record is paired with measured pEC50 data.

Compound	pEC50
Cc1cccc(C)c1-c1cc2nc(n1)NS(=O)(=O)c1cccc(c1)C(=O)N1CCNCC1C(Cc1ccccc1)O2 (stereo not drawn)	4.52 to 5.52
Cc1cccc(C)c1-c1cc2nc(n1)NS(=N)(=O)c1cccc(c1)C(=O)N1CCN(C(=O)OC(C)(C)C)CC(C1)O2 (stereo not drawn) [Compound 239]	5.52 to 6.00
Cc1cccc(C)c1-c1cc2nc(n1)NS(=O)(=O)c1cccc(c1)C(=O)N1CCN(C3CC4(CCCCC4)C3)C[C@H](C1)O2	> 6.00
Cc1cccc(C)c1-c1cc2nc(n1)NS(=O)(=O)c1cccc(c1)C(=O)N1C[C@@H](CN(CC(C)(C)C)[C@@H](CC(C)C)C1)O2	> 6.00
Cc1cccc(C)c1-c1cc2nc(n1)NS(=O)(=O)c1cccc(c1)C(=O)N1CCN(C3CCOCC3)C[C@H](C1)O2	4.52 to 5.52
Cc1cccc(C)c1-c1cc2nc(n1)NS(=O)(=O)c1cccc(c1)C(=O)N1CCN(C3CCC4CC43)C[C@H](C1)O2 (stereo partly drawn)	> 6.00

* * *

target: CFTR-mediated chloride transport in human intestinal epithelial enteroid cells (Homo sapiens, UniProt P13569); assay: Membrane potential dye, Enteroid Assay A; format: cell-based; details: enteroid cells incubated with test compound 18-24 hours; acute 10 μM forskolin and 300 nM N-[2,4-bis(1,1-dimethylethyl)-5-hydroxyphenyl]-1,4-dihydro-4-oxoquinoline-3-carboxamide; read-out: Ent. A EC50
Sequence (P13569 with tags, fused parts or gaps DEL508-508): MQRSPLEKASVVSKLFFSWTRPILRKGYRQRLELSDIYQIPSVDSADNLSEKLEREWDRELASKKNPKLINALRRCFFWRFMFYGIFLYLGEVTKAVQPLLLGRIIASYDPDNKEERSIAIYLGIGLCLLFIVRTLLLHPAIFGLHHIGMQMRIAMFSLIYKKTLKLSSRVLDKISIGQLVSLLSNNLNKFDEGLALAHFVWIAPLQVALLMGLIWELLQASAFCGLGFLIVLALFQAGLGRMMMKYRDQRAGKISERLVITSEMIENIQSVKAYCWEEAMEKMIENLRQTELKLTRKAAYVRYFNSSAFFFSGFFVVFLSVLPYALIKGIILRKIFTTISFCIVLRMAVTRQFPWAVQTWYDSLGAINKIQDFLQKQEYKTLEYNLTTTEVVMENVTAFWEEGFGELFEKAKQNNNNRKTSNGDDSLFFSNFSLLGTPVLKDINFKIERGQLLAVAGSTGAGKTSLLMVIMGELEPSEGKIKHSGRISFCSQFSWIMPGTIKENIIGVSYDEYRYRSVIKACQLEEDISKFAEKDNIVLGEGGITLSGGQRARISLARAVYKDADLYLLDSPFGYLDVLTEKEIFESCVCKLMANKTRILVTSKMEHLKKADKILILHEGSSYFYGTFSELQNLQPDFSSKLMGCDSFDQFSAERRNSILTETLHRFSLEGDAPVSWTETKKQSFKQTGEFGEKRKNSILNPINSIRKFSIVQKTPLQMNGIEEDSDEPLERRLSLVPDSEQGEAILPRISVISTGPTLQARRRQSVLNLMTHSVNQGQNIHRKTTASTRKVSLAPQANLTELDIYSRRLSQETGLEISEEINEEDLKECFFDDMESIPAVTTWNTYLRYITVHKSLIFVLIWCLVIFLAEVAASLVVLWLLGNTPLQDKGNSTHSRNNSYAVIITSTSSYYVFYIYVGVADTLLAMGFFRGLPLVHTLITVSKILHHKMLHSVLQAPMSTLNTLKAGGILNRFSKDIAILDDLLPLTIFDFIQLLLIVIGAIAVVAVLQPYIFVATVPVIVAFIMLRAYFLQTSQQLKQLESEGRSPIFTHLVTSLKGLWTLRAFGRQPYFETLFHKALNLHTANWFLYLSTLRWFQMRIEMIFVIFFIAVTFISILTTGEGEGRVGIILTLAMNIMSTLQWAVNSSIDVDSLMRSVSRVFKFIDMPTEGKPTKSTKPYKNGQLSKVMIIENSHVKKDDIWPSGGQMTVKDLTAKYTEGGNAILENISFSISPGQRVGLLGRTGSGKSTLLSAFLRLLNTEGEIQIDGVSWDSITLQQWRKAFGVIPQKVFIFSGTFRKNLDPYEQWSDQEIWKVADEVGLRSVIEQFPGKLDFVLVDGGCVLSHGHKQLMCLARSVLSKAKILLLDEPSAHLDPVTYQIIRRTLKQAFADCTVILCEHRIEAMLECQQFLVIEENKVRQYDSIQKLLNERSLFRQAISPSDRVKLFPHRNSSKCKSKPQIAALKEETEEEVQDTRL

Compound	EC50
Cc1cccc(C)c1-c1cc2nc(n1)NS(=O)(=O)c1cccc(c1)C(=O)N1CCN(CC(C)C)C[C@@H]1CO2 [Compound 269]	< 1 µM
Cc1cccc(C)c1-c1cc2nc(n1)NS(=O)(=O)c1cccc(c1)C(=O)N1CCCC(C1)O2 (stereo not shown) [Compound 326]	3 to 30 µM
Cc1cccc(C)c1-c1cc2nc(n1)NS(=O)(=O)c1cccc(c1)C(=O)N1CCOC[C@@H]1[C@@H](Cc1ccccc1)O2 [Compound 209]	< 1 µM
Cc1cccc(C)c1-c1cc2nc(n1)NS(=O)(=O)c1cccc(c1)C(=O)N1CCN(CC3CCOC(C)(C)C3)C[C@@H]1CO2 (stereo partly shown) [Compound 256]	< 1 µM
Cc1cccc(C)c1-c1cc2nc(n1)NS(=O)(=O)c1cccc(c1)C(=O)N1Cc3ncccc3C(C1)O2 (stereo not shown) [Compound 198]	1 to 3 µM
Cc1cccc(C)c1-c1cc2nc(n1)NS(=O)(=O)c1cccc(c1)C(=O)N1CCN(CC3CCOCC3)CC1CO2 (stereo not shown) [Compound 312]	1 to 3 µM
Cc1cccc(C)c1-c1cc2nc(n1)NS(=O)(=O)c1cccc(c1)C(=O)N1CC(CC(c3ccccc3)C1)O2 (single isomer, unassigned) [Compound 224]	< 1 µM

* * *

target: CFTR-mediated chloride transport in human intestinal epithelial enteroid cells (Homo sapiens); assay: Membrane potential dye, Enteroid Assay A; assay type: cell-based; settings: percentage of chloride transport of triple combination control (3 μM N-[(6-amino-2-pyridyl)sulfonyl]-6-(3-fluoro-5-isobutoxy-phenyl)-2-[(4S)-2,2,4-trimethylpyrrolidin-1-yl]pyridine-3-carboxamide based)
Test Readout: Ent. A Max Activity (%)

Molecule	Reported Value
Cc1ccc(CN2CCN3C(=O)c4cccc(c4)S(=O)(=O)Nc4nc(cc(-c5c(C)cccc5C)n4)OC[C@H]3C2)cn1	+++ (+++ is >60%)
Cc1cccc(C)c1-c1cc2nc(n1)NS(=O)(=O)c1cccc(c1)C(=O)N1CCNCC(C1)O2 (stereo not shown)	++ (++ is 30-60%)
Cc1cccc(C)c1-c1cc2nc(n1)NS(=O)(=O)c1cccc(c1)C(=O)N1CCN(Cc3cncn3C)CC(C1)O2 (stereo not shown)	+ (+ is <300%)
Cc1cccc(C)c1-c1cc2nc(n1)NS(=O)(=O)c1cccc(c1)C(=O)N1CCN(CC3CCOCC3)CC(C1)O2 (stereo not shown)	+++ (+++ is >60%)
Cc1cccc(C)c1-c1cc2nc(n1)NS(=O)(=O)c1cccc(c1)C(=O)N1CC(CC(c3ccccc3)C1)O2 (single isomer, unassigned) [Compound 224]	++ (++ is 30-60%)
Cc1cccc(C)c1-c1cc2nc(n1)NS(=O)(=O)c1cccc(c1)C(=O)N1CCC(c3ccccc3)C(C1)O2 (stereo not shown)	+++ (+++ is >60%)
CC(C)Oc1cccc(-c2cc3nc(n2)NS(=O)(=O)c2cccc(c2)C(=O)N2Cc4ccccc4C(C2)O3)c1 (stereo not shown)	+ (+ is <300%)

* * *

molecular target: CFTR-mediated chloride transport in human intestinal epithelial enteroid cells (Homo sapiens, UniProt P13569); assay: Membrane potential dye, Enteroid Assay A; assay type: cell-based; details: percentage of chloride transport of triple combination control (3 μM N-[(6-amino-2-pyridyl)sulfonyl]-6-(3-fluoro-5-isobutoxy-phenyl)-2-[(4S)-2,2,4-trimethylpyrrolidin-1-yl]pyridine-3-carboxamide based)

Compound	Ent. A Max Activity (%)
Cc1cccc(C)c1-c1cc2nc(n1)NS(=O)(=O)c1cccc(c1)C(=O)N1CCN(CCC3CCOCC3)C[C@@H]1CO2	++ (++ is 30-60%)
Cc1cccc(C)c1-c1cc2nc(n1)NS(=O)(=O)c1cccc(c1)C(=O)N1CCN(CC3(C)COC3)CC(C1)O2 (stereo not drawn)	++ (++ is 30-60%)
Cc1cccc(C)c1-c1cc2nc(n1)NS(=O)(=O)c1cccc(c1)C(=O)N1CCN(C(=O)C3CCCCC3)C[C@@H]1CO2	+++ (+++ is >60%)
Cc1cccc(C)c1-c1cc2nc(n1)NS(=O)(=O)c1cccc(c1)C(=O)N1CCN(CC(C)C)CC(C1)O2 (stereo not drawn)	+++ (+++ is >60%)
Cc1cccc(C)c1-c1cc2nc(n1)NS(=O)(=O)c1cccc(c1)C(=O)N1CCN(Cc3ccc(O)cc3)C[C@@H]1CO2	++ (++ is 30-60%)
Cc1cccc(C)c1-c1cc2nc(n1)NS(=O)(=O)c1cc(n(C)n1)C(=O)N1Cc3ccccc3[C@H](C1)O2 [Compound 340]	+ (+ is <300%)
Cc1cccc(C)c1-c1cc2nc(n1)NS(=O)(=O)c1cccc(c1)C(=O)N1CCN(Cc3ccccc3)CC1CO2 (stereo not drawn)	+++ (+++ is >60%)
Cc1cccc(C)c1-c1cc2nc(n1)NS(=O)(=O)c1cccc(c1)C(=O)N1CCN(CC3(C)COC3)C[C@@H]1CO2	+ (+ is <300%)
Cc1cccc(C)c1-c1cc2nc(n1)NS(=O)(=O)c1cccc(c1)C(=O)N1CCN(Cc3ccn(C)n3)C[C@@H]1CO2	++ (++ is 30-60%)
Cc1cccc(C)c1-c1cc2nc(n1)NS(=O)(=O)c1cccc(c1)C(=O)N1CCCC1CO2 (stereo not drawn)	+ (+ is <300%)
Cc1cccc(C)c1-c1cc2nc(n1)NS(=O)(=O)c1cccc(c1)C(=O)N1Cc3ccccc3[C@@H](O2)[C@H]1CC(C)C (stereo in doubt)	+++ (+++ is >60%)
Cc1cccc(C)c1-c1cc2nc(n1)NS(=O)(=O)c1cccc(c1)C(=O)N1CCC[C@@H](C1)O2	+ (+ is <300%)
Cc1cccc(C)c1-c1cc2nc(n1)NS(=O)(=O)c1cccc(c1)C(=O)N1CCN(C[C@@H]3CC(C)(C)NC3=O)C[C@@H]1CO2 (stereo in doubt)	+ (+ is <300%)
Cc1cccc(C)c1-c1cc2nc(n1)NS(=O)(=O)c1cncc(c1)C(=O)N1Cc3ccccc3[C@H](C1)O2	+ (+ is <300%)
Cc1cccc(C)c1-c1cc2nc(n1)NS(=O)(=O)c1cccc(c1)C(=O)N1CCN(Cc3ccccc3O)CC(C1)O2 (stereo not drawn)	+++ (+++ is >60%)
Cc1cccc(C)c1-c1cc2nc(n1)NS(=O)(=O)c1cccc(c1)C(=O)N1CCN(Cc3ccc(C#N)cc3)C[C@@H]1CO2	+++ (+++ is >60%)
Cc1cccc(C)c1-c1cc2nc(n1)NS(=O)(=O)c1cccc(c1)C(=O)N1CCNCC1C(C)O2 (stereo not drawn)	+ (+ is <300%)
COC(=O)C1CC2CN(C1)C(=O)Nc1cccc(c1)S(=O)(=O)Nc1nc(cc(-c3c(C)cccc3C)n1)O2 (stereo not drawn)	++ (++ is 30-60%)
Cc1cccc(C)c1-c1cc2nc(n1)NS(=O)(=O)c1cccc(c1)C(=O)N1CCOC[C@@H]1CO2	++ (++ is 30-60%)
Cc1cccc(C)c1-c1cc2nc(n1)NS(=O)(=O)c1cccc(c1)C(=O)N1CCN(C(=O)CCN3CCCC3=O)CC1CO2 (stereo not drawn)	+ (+ is <300%)
CNc1ccc(CN2CCN3CC(C2)Oc2cc(-c4c(C)cccc4C)nc(n2)NS(=O)(=O)c2cccc(c2)C3=O)cn1 (stereo not drawn)	+++ (+++ is >60%)
Cc1cccc(C)c1-c1cc2nc(n1)NS(=O)(=O)c1cccc(c1)C1CCCCN1C(CC(C)C)CO2 (stereo not drawn)	+ (+ is <300%)
Cc1cccc(C)c1-c1cc2nc(n1)NS(=O)(=O)c1cccc(c1)C(=O)N1CCN(C(=O)CC3CCCCC3)C[C@@H]1CO2	++ (++ is 30-60%)
Cc1cccc(C)c1-c1cc2nc(n1)NS(=O)(=O)c1cccc(c1)C(=O)N1CCN(CCC(C)(C)C)C[C@H](C1)O2	+++ (+++ is >60%)
Cc1cccc(C)c1-c1cc2nc(n1)NS(=O)(=O)c1cccc(c1)C(=O)N1CCN(CCC3(C(F)(F)F)CC3)C(CO2)C1 (stereo not drawn)	+++ (+++ is >60%)
Cc1cccc(C)c1-c1cc2nc(n1)NS(=O)(=O)c1cccc(c1)C(=O)N1CCNC[C@@H]1CO2	++ (++ is 30-60%)
Cc1cccc(C)c1-c1cc2nc(n1)NS(=O)(=O)c1cccc(c1)C(=O)N1C[C@H]3C[C@@H]1[C@@H](C3)O2 [Compound 363]	+++ (+++ is >60%)
